# TEST_TARGET: Lactoperoxidase (Homo sapiens, UniProt P22079)
# Sequence (P22079 whole entry): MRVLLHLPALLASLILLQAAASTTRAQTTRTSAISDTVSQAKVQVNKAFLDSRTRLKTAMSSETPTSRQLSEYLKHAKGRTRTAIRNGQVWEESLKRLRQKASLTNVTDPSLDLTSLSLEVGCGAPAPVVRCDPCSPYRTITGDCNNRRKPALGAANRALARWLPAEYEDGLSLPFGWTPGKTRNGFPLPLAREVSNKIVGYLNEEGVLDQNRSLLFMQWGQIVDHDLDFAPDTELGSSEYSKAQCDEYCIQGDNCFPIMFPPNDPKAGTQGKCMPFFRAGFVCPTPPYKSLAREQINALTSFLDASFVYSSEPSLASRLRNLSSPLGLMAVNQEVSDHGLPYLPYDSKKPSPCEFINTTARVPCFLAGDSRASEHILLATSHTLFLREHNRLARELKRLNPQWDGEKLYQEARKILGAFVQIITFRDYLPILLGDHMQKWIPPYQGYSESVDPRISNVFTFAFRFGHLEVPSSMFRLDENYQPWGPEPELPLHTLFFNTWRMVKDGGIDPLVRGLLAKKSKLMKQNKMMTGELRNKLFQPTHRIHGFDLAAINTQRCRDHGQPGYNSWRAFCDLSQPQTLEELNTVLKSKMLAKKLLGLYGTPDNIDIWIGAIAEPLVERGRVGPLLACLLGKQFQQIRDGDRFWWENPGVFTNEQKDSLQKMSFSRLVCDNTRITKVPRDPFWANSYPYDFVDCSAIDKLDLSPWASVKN
# MEASUREMENT_NOTES: Inhibition of lactoperoxidase-catalyzed iodination of L-tyrosine assessed as 3,5-diiodo-L-tyrosine formation by HPLC
READOUT_KIND: IC50 (µM)
Reply with just the number (in µM).

Past entries and their recorded results:
Problem: Observed IC50 on Lactoperoxidase (Homo sapiens, UniProt P22079) for CCn1ccn(C(=O)OC)c1=[Se] , please.
Solution: 25.3

Problem: Repeat with CCOC(=O)n1ccn(CC)c1=[Se]
Solution: 21.3

Problem: Repeat with COC(=O)n1ccn(C)c1=S
Solution: 10.7

Problem: Repeat with CCOC(=O)n1ccn(C)c1=[Se]
Solution: 10.1

Problem: Repeat with CCn1ccn(C(=O)OC)c1=S
Solution: 19.6

---
Problem: Observed IC50 on Lactoperoxidase (Homo sapiens, UniProt P22079) for COC(=O)n1ccn(C)c1=[Se] , please.
Solution: 19.7

Problem: Repeat with CCOC(=O)n1ccn(C)c1=S [CARBIMAZOLE]
Solution: 10.4
